B1: glmS ribozyme (parent)
chain: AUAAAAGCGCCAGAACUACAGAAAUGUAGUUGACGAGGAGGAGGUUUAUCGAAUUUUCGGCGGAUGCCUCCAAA

# Variants of: B1
# procedure text: kcat; higher = faster cleavage; RNA array
# condition context: with glucosamine-6-phosphate
Variants at the floor of the assay were thinned out.
recorded endpoint: kcat (s⁻¹)
Answer format: numeric, s⁻¹ implied, no suffix.

input: Fill in: kcat of C16G G40C is ___
output: 0.0003

input: // returns reported kcat for input A36C U69C
output: 1.31e-05

input: Please give the measured kcat for this variant: G63U C70G
output: 2.12e-05

input: Please report the recorded kcat for A12U C16A U56A .
output: 0.00194

input: What does the data say about its kcat? Entry: A39U G40A
output: 0.00855

input: I'd like to know its kcat. The variant in question is A33U C50U C68U
output: 2.95e-05

input: What kcat value was documented for this variant, U46A U54G C70G ?
output: 0.000171

input: Returns the measured kcat for the input variant. Input: "A33U"
output: 0.00014

input: Which kcat reading was recorded for the variant "A39U" ?
output: 0.0425

input: Name the recorded kcat for A42U U46A .
output: 0.000165

input: # input variant: A42G C71U ; wanted: its kcat
output: 0.0155

input: Which kcat value belongs to "U56G" ?
output: 0.04

input: State the recorded kcat for this entry: A12G C67G
output: 0.000322

input: Query: kcat; subject: A6C C70G
output: 1.09e-05

input: Name the reported kcat value associated with the variant U55C C70U
output: 0.00171

input: kcat for A6C U56A ?
output: 4.08e-05

input: Consider the variant U31G G43A and give its measured kcat.
output: 1.25e-05

input: Using the record for U54G U55A C70G , report its kcat.
output: 0.000128

input: I have this variant here, A42G U69C , and I need its recorded kcat.
output: 0.0183

Where do the numbers come from? From the supplement of paper PMC7125110.
